# assay: Mycobacterium tuberculosis growth inhibition, primary screen (AID 1259343)
# assay.conditions: at 10 µM, stronger effect = higher value
Hit rate of the full screen: of about 6,200 compounds, about 2,900 (47%) were called active. So high a share suggests a set chosen from earlier hits. The list shows a part of the results.
Listed compounds paired with reported inhibition
measured.parameter: inhibition (%)

> print(dat)
                                    compound  observed.measurement
 1  CCOC(=O)c1nn(-c2cccc(C)c2)c(=O)c2c(N)scc12                  89.5
 2            O=C(O)c1csc(-c2ccc(Cl)cc2Cl)n1                  39.2
 3  OC(C#CCC(O)c1ccccc1)c1ccccc1 (centres undefined)                   101
 4  CCOC(=O)c1nn(-c2ccc(C)cc2)c(=O)c2c(N)scc12                  60.8
 5  O=C(CN1CCCC1=O)Nc1ccc(C23CC4CC(CC(C4)C2)C3)cc1                  81.6
 6       O=C(CN1CCCc2cccc(F)c21)Nc1cccc(F)c1                  2.21
 7  CCOC(=O)c1nn(-c2ccc(C)cc2)c(=O)cc1N1CCN(c2ccccc2OC)CC1                  38.5
 8    Cc1ccc(Sc2ccc(NC(=O)C3=COCCO3)cc2)cc1C                  33.3
 9  CCS(=O)(=O)N1CCc2cc(-c3csc(-c4ccc(O)cc4)n3)ccc21                  11.5
10  CCOC(=O)c1nn(-c2ccccc2)c(=O)cc1NC(=O)c1ccc(C(C)(C)C)cc1                 -13.4
11  CC(=O)Nc1ccc(/C=C2\C(=O)c3c(O)ccc(Cl)c3C2C)cc1 (centres undefined)                  28.3
12  CC12CCC(CC1=NNc1nc3ccccc3o1)C2(C)C (centres undefined)                  83.6
13           CC(=O)Nc1cccc(CNc2ccc(Br)cn2)c1                  2.55
14  FC(F)(F)c1cccc(C(OCCN2CCN(Cc3ccco3)CC2)c2ccccc2)c1 (centres undefined)                 -3.93
15  Cc1nc([N+](=O)[O-])cn1CCC(=O)NOCc1ccccc1                 -5.24
16  CCCCCCc1ccc(C(=O)N2CCSC2c2ccncc2)cc1 (centres undefined)                  95.1
17                Nc1ccccc1Sc1c[nH]c2ccccc12                  46.1
18        Cc1nc(N)sc1N=Nc1cc(C(F)(F)F)ccc1Cl                  18.3
19                      CCCCc1ccc(C(=O)O)nc1                  40.9
20  COCC(=O)Nc1nc2cc(C(F)(F)F)ccc2n1Cc1ccco1                  62.6
21  O=C(Nn1cc([N+](=O)[O-])cn1)c1cccc(COc2ccc(Br)cc2)c1                  78.8
22            CCNC(=O)c1ccccc1OCc1cccc(Br)c1                  19.8
23       O=C(Nc1ccc(SCc2cccnc2)cc1)C1=COCCO1                    61
24  CCOC(=O)c1nn(-c2ccc(C)cc2)c(=O)cc1NC(=O)C1CCCC1                  -7.9
